System: 931267-113-T-J1-PDC multicell spheroid viability
Protocol summary: Anticancer human tumor 931267-113-T-J1-PDC patient-derived colon adenocarcinoma cell line growth inhibition [PI3K]
Condition parameters: second compound 3.16 µM; first compound 0.1 µM; stronger effect = lower value
Observed property: viability, T/C (%)

compound="CCCS(=O)(=O)Nc1ccc(F)c(C(=O)c2c[nH]c3ncc(-c4ccc(Cl)cc4)cc23)c1F + Cc1nc(NC(=O)N2CCCC2C(N)=O)sc1-c1ccnc(C(C)(C)C(F)(F)F)c1" measurement_target="931267-113-T-J1-PDC multicell spheroid viability" endpoint_unit=% result_number=82.1
compound="CC(C)NCC(C(=O)N1CCN(c2ncnc3c2C(C)CC3O)CC1)c1ccc(Cl)cc1 (stereo unspecified) + CC(Nc1ncnc2nc[nH]c12)c1cc2cccc(Cl)c2c(=O)n1-c1ccccc1" measurement_target="931267-113-T-J1-PDC multicell spheroid viability" endpoint_unit=% result_number=100
compound="CC(C)NCC(C(=O)N1CCN(c2ncnc3c2C(C)CC3O)CC1)c1ccc(Cl)cc1 (stereo unspecified) + Cc1nc(NC(=O)N2CCCC2C(N)=O)sc1-c1ccnc(C(C)(C)C(F)(F)F)c1" measurement_target="931267-113-T-J1-PDC multicell spheroid viability" endpoint_unit=% result_number=81.1
compound="C[C@@H](NC(=O)c1ncnc(N)c1Cl)c1ncc(C(=O)Nc2cc(C(F)(F)F)c(Cl)cn2)s1 + CC(Nc1ncnc2nc[nH]c12)c1cc2cccc(Cl)c2c(=O)n1-c1ccccc1" measurement_target="931267-113-T-J1-PDC multicell spheroid viability" endpoint_unit=% result_number=108
compound="CC1(C)CCC(Nc2ncc(C(F)(F)F)c(-c3c[nH]c4c(P(C)(C)=O)c(C#N)ccc34)n2)CN1 (stereo unspecified) + CC(Nc1ncnc2nc[nH]c12)c1cc2cccc(Cl)c2c(=O)n1-c1ccccc1" measurement_target="931267-113-T-J1-PDC multicell spheroid viability" endpoint_unit=% result_number=100
compound="C[C@@H](NC(=O)c1ncnc(N)c1Cl)c1ncc(C(=O)Nc2cc(C(F)(F)F)c(Cl)cn2)s1 + Cc1nc(NC(=O)N2CCCC2C(N)=O)sc1-c1ccnc(C(C)(C)C(F)(F)F)c1" measurement_target="931267-113-T-J1-PDC multicell spheroid viability" endpoint_unit=% result_number=91.8

###

Tested on: 931267-113-T-J1-PDC multicell spheroid viability
Protocol summary: Anticancer human tumor 931267-113-T-J1-PDC cell line growth inhibition [PI3K];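 also: viability read 7 days after compound addition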
Condition parameters: second compound 10 µM; first compound 0.0316 µM; stronger effect = lower value
Observed property: viability, T/C (%)

molecule="CNC(=O)c1ccc(N2C(=S)N(c3ccc(C#N)c(C(F)(F)F)c3)C(=O)C2(C)C)cc1F + Cc1nc(NC(=O)N2CCCC2C(N)=O)sc1-c1ccnc(C(C)(C)C(F)(F)F)c1" endpoint_unit=% result_number=59.7
molecule="C#Cc1c(F)ccc2cc(O)cc(-c3ncc4c(N5CC6CCC(C5)N6)nc(OCC56CCCN5CC(F)C6)nc4c3F)c12 (stereo unspecified) + Cc1nc(NC(=O)N2CCCC2C(N)=O)sc1-c1ccnc(C(C)(C)C(F)(F)F)c1" endpoint_unit=% result_number=49.1
molecule="CNC(=O)c1ccc(N2C(=S)N(c3ccc(C#N)c(C(F)(F)F)c3)C(=O)C2(C)C)cc1F + CC(Nc1ncnc2nc[nH]c12)c1cc2cccc(Cl)c2c(=O)n1-c1ccccc1" endpoint_unit=% result_number=99
molecule="CC1(C)CCC(CN2CCN(c3ccc(C(=O)NS(=O)(=O)c4ccc(NCC5CCOCC5)c([N+](=O)[O-])c4)c(Oc4cnc5[nH]ccc5c4)c3)CC2)=C(c2ccc(Cl)cc2)C1 + CC(Nc1ncnc2nc[nH]c12)c1cc2cccc(Cl)c2c(=O)n1-c1ccccc1" endpoint_unit=% result_number=92.9
molecule="C[C@@H](NC(=O)c1ncnc(N)c1Cl)c1ncc(C(=O)Nc2cc(C(F)(F)F)c(Cl)cn2)s1 + Cc1nc(NC(=O)N2CCCC2C(N)=O)sc1-c1ccnc(C(C)(C)C(F)(F)F)c1" endpoint_unit=% result_number=72.2
molecule="CC1(C)CCC(CN2CCN(c3ccc(C(=O)NS(=O)(=O)c4ccc(NCC5CCOCC5)c([N+](=O)[O-])c4)c(Oc4cnc5[nH]ccc5c4)c3)CC2)=C(c2ccc(Cl)cc2)C1 + Cc1nc(NC(=O)N2CCCC2C(N)=O)sc1-c1ccnc(C(C)(C)C(F)(F)F)c1" endpoint_unit=% result_number=57.1

###

Tested on: 931267-113-T-J1-PDC multicell spheroid viability
Protocol summary: Anticancer human tumor 931267-113-T-J1-PDC cell line growth inhibition [PI3K];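 also: viability read 7 days after compound addition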
Condition parameters: curve of first compound; second compound 0.01 µM
Each entry below carries its reported IC50.
Observed property: IC50

molecule="Cn1cnc2c(F)c(Nc3ccc(Br)cc3Cl)c(C(=O)NOCCO)cc21 + CC(Nc1ccc2c(c1)OCCn1cc(N3C(=O)OCC3C(F)F)nc1-2)C(N)=O" result="0.0997 µM"
molecule="C=CC(=O)N1CCN(c2nc(=O)n(-c3c(C)ccnc3C(C)C)c3nc(-c4c(O)cccc4F)c(F)cc23)C(C)C1 (stereo not drawn) + CC(Nc1ccc2c(c1)OCCn1cc(N3C(=O)OCC3C(F)F)nc1-2)C(N)=O" result="> 10 µM"
molecule="CC1(C)CCC(Nc2ncc(C(F)(F)F)c(-c3c[nH]c4c(P(C)(C)=O)c(C#N)ccc34)n2)CN1 (stereo not drawn) + COc1c(OCCCN2CCOCC2)ccc2c3n(c(=NC(=O)c4cnc(N)nc4)nc12)CCN3" result="> 10 µM"

###

Tested on: 931267-113-T-J1-PDC multicell spheroid viability
Protocol summary: Anticancer human tumor 931267-113-T-J1-PDC cell line growth inhibition [PI3K]; active = viability on the fitted dose curve at most 10% of control; inactive = the rest;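 also: viability read 7 days after compound addition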
Condition parameters: second compound 1 µM; first compound 3.16 µM
Source text: Combinatorial screen of targeted agents with the PI3K inhibitors inavolisib, alpelisib, duvelisib, and copanlisib in multi-cell type tumor spheroids A high-throughput screen of multi-cell type tumor spheroids was designed to identify active combinations of targeted small molecules and PI3K pathway inhibitors. […] Compounds. […] If the clinical Cmax for an agent had not been determined, the highest concentration tested was 10 microM. […]
Possible outcomes: y for active, n for inactive

compound="C#Cc1c(F)ccc2cc(O)cc(-c3ncc4c(N5CC6CCC(C5)N6)nc(OCC56CCCN5CC(F)C6)nc4c3F)c12 (stereo not drawn) + COc1c(OCCCN2CCOCC2)ccc2c3n(c(=NC(=O)c4cnc(N)nc4)nc12)CCN3" group_label=y
compound="CC(Cn1ccc(-c2ccc(C#N)c(Cl)c2)n1)NC(=O)c1cc(C(C)O)[nH]n1 (stereo not drawn) + CC(Nc1ncnc2nc[nH]c12)c1cc2cccc(Cl)c2c(=O)n1-c1ccccc1" group_label=n
compound="C#Cc1c(F)ccc2cc(O)cc(-c3ncc4c(N5CC6CCC(C5)N6)nc(OCC56CCCN5CC(F)C6)nc4c3F)c12 (stereo not drawn) + CC(Nc1ncnc2nc[nH]c12)c1cc2cccc(Cl)c2c(=O)n1-c1ccccc1" group_label=n

###

Tested on: 931267-113-T-J1-PDC multicell spheroid viability
Protocol summary: Anticancer human tumor 931267-113-T-J1-PDC cell line growth inhibition [PI3K];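 also: viability read 7 days after compound addition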
Condition parameters: second compound 0.01 µM; first compound 0.000316 µM; stronger effect = lower value
Each entry below carries its reported viability, T/C.
Observed property: viability, T/C (%)

molecule="CC(C)n1nc(-c2ccc3oc(N)nc3c2)c2c(N)ncnc21 + COc1c(OCCCN2CCOCC2)ccc2c3n(c(=NC(=O)c4cnc(N)nc4)nc12)CCN3" observed_property="viability, T/C" endpoint_unit=% result_number=96.2
molecule="CC(=O)c1c(C)c2cnc(Nc3ccc(N4CCNCC4)cn3)nc2n(C2CCCC2)c1=O + CC(Nc1ccc2c(c1)OCCn1cc(N3C(=O)OCC3C(F)F)nc1-2)C(N)=O" observed_property="viability, T/C" endpoint_unit=% result_number=111
molecule="CC(C)n1nc(-c2ccc3oc(N)nc3c2)c2c(N)ncnc21 + CC(Nc1ccc2c(c1)OCCn1cc(N3C(=O)OCC3C(F)F)nc1-2)C(N)=O" observed_property="viability, T/C" endpoint_unit=% result_number=104
molecule="Cn1ncnc1[C@H]1c2n[nH]c(=O)c3cc(F)cc(c23)N[C@@H]1c1ccc(F)cc1 + COc1c(OCCCN2CCOCC2)ccc2c3n(c(=NC(=O)c4cnc(N)nc4)nc12)CCN3" observed_property="viability, T/C" endpoint_unit=% result_number=103
molecule="CC(=O)c1c(C)c2cnc(Nc3ccc(N4CCNCC4)cn3)nc2n(C2CCCC2)c1=O + COc1c(OCCCN2CCOCC2)ccc2c3n(c(=NC(=O)c4cnc(N)nc4)nc12)CCN3" observed_property="viability, T/C" endpoint_unit=% result_number=105
molecule="Cn1ncnc1[C@H]1c2n[nH]c(=O)c3cc(F)cc(c23)N[C@@H]1c1ccc(F)cc1 + CC(Nc1ccc2c(c1)OCCn1cc(N3C(=O)OCC3C(F)F)nc1-2)C(N)=O" observed_property="viability, T/C" endpoint_unit=% result_number=114
